Just for reference, PubChem BioAssay AID248 is where these values come from.

Tested on: L1210 leukemia ip in BDF1 mice, survival T/C
experimental-details: NCI In Vivo Anticancer Drug Screen. Data for tumor model L1210 Leukemia (intraperitoneal) in B6D2F1 (BDF1) mice
reported-conditions: endpoint: mean survival time; dose: 6.25 mg/kg/injection; schedule: Q01DX009 (ip); vehicle: saline; higher = longer survival
Inconclusive results and toxic doses are left out.

compound	T/C
O=[N+]([O-])c1ccccn1	102 % of control
CC(C)(SC(c1ccccc1)(c1ccccc1)c1ccccc1)C(N)C(=O)O (centres undefined)	103 % of control
CN(C)c1ccc(-c2cccc[n+]2C)cc1	104 % of control
C/C=C/C[P+](c1ccccc1)(c1ccccc1)c1ccccc1	110 % of control
